target.desc: DDX3X ATPase (Homo sapiens)
Construct: Recombinant his-tagged human full length DDX3X was cloned into the E. coli expression vector pET-30a(+); His tag
Sequence (O00571 whole entry): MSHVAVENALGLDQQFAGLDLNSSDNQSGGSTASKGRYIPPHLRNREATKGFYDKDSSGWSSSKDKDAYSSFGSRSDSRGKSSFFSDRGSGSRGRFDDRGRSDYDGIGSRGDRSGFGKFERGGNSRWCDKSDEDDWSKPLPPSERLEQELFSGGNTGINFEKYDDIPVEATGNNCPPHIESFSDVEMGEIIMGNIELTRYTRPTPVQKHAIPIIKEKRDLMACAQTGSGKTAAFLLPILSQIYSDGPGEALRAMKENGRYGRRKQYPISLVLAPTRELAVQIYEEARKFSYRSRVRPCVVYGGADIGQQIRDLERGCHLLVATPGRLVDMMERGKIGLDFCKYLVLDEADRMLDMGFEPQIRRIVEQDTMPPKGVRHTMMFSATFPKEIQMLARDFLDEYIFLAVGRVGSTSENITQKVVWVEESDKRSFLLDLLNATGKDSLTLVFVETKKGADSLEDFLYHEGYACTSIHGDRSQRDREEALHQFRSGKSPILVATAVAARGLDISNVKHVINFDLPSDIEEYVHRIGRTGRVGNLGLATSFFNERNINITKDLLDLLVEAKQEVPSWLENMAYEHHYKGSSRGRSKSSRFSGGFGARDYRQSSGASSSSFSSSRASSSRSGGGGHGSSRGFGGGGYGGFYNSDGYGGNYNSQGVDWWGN
test.name: DDX3X ATPase assay (ADP-Glo)
experimental.setup: recombinant human DDX3X, 50 μM ATP; mean ± SD of three experiments; read-out: DDX3X ATPase Ki (apparent dissociation constant for inhibitor binding)
pKi: −log10 of the molar value.
property.label: pKi

compound: Nc1ccccc1-c1nnc(NC(=O)c2ccccc2S(=O)(=O)O)s1 [Compound 35]
target.desc: DDX3X ATPase (Homo sapiens)
pKi: 4.70

1 = O=C(O)c1ccccc1C(=O)Nc1nnc(-c2ccc(O)cc2)s1 [Compound 24]
2 = O=C(Nc1nnc(-c2ccccc2[N+](=O)[O-])s1)c1ccccc1S(=O)(=O)O [Compound 34]
I need your help: which of the pair 1 , 2 has higher pKi? # respond with the chosen item's label 1
(1: 5.72, 2: 4.45)
